- MEASURED_ON: human GRP receptor (human, UniProt P30550 1-384)
- Sequence (P30550 whole entry): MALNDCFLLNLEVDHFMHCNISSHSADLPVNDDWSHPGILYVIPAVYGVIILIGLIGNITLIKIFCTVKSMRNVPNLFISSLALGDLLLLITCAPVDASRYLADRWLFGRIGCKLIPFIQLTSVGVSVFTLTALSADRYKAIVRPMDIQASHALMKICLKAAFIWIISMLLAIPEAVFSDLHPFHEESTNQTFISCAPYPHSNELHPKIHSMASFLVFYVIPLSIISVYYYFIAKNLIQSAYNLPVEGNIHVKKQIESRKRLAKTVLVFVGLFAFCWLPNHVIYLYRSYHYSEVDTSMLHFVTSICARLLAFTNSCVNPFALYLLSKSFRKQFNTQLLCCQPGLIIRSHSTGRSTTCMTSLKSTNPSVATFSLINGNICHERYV
- PROTOCOL_DETAILS: cell-based or functional assay
Starred links: 1 amine or outer side, 2 acyl side, 3 side chain; linkers in the order of their positions; H or OH if unused. Non-standard residues stand in square brackets, D forms with d. *: point of attachment. Trp(7-F) = N[C@@H](Cc1c[nH]c2c(F)cccc12)C(=O)O; Trp(7-Me) = Cc1cccc2c(C[C@H](N)C(=O)O)c[nH]c12; C20 diacid = O=C(O)CCCCCCCCCCCCCCCCCCC(=O)*; d(γGlu) = O=C(O)[C@@H](CCC(=O)[*:2])N[*:1]; C18 diacid = O=C(O)CCCCCCCCCCCCCCCCC(=O)*; γGlu = O=C(O)[C@H](CCC(=O)[*:2])N[*:1]; Palmitoyl = CCCCCCCCCCCCCCCC(=O)*; 3Pal = N[C@@H](Cc1cccnc1)C(=O)O; Nle = CCCC[C@H](N)C(=O)O; AEEA = NCCOCCOCC(=O)O; Aib = CC(C)(N)C(=O)O; βAla = NCCC(=O)O; Sar = CNCC(=O)O
REPORTED_ENDPOINT: hIP1 GRPR EC50 (nM)
Note: unit nM is implicit; provide only the numeric part.

Please review the entries below; each comes with its answer.
>>> test_value("{C20 diacid}-[γGlu][AEEA][AEEA]GEGEHWAV[βAla]HL[Nle]-NH2 (SMILES CCCC[C@H](NC(=O)[C@H](CC(C)C)NC(=O)[C@H](Cc1c[nH]cn1)NC(=O)CCNC(=O)[C@@H](NC(=O)[C@H](C)NC(=O)[C@H](Cc1c[nH]c2ccccc12)NC(=O)[C@H](Cc1c[nH]cn1)NC(=O)[C@H](CCC(=O)O)NC(=O)CNC(=O)[C@H](CCC(=O)O)NC(=O)CNC(=O)COCCOCCNC(=O)COCCOCCNC(=O)CC[C@H](NC(=O)CCCCCCCCCCCCCCCCCCC(=O)O)C(=O)O)C(C)C)C(N)=O) [Peptide 266]")
11
>>> test_value("Palmitoyl-[d(γGlu)][AEEA][AEEA][AEEA][AEEA]GNH[Trp(7-Me)]AV[dA]HL[Nle]-NH2 (SMILES CCCCCCCCCCCCCCCC(=O)N[C@H](CCC(=O)NCCOCCOCC(=O)NCCOCCOCC(=O)NCCOCCOCC(=O)NCCOCCOCC(=O)NCC(=O)N[C@@H](CC(N)=O)C(=O)N[C@@H](Cc1c[nH]cn1)C(=O)N[C@@H](Cc1c[nH]c2c(C)cccc12)C(=O)N[C@@H](C)C(=O)N[C@H](C(=O)N[C@H](C)C(=O)N[C@@H](Cc1c[nH]cn1)C(=O)N[C@@H](CC(C)C)C(=O)N[C@@H](CCCC)C(N)=O)C(C)C)C(=O)O) [Peptide 59]")
2.01
>>> test_value("{C18 diacid}-[d(γGlu)][AEEA][AEEA]GN[3Pal][Trp(7-Me)]AV[dA]HL[Nle][Sar]-NH2 (SMILES CCCC[C@H](NC(=O)[C@H](CC(C)C)NC(=O)[C@H](Cc1c[nH]cn1)NC(=O)[C@@H](C)NC(=O)[C@@H](NC(=O)[C@H](C)NC(=O)[C@H](Cc1c[nH]c2c(C)cccc12)NC(=O)[C@H](Cc1cccnc1)NC(=O)[C@H](CC(N)=O)NC(=O)CNC(=O)COCCOCCNC(=O)COCCOCCNC(=O)CC[C@@H](NC(=O)CCCCCCCCCCCCCCCCC(=O)O)C(=O)O)C(C)C)C(=O)N(C)CC(N)=O) [Peptide 73]")
1190
>>> test_value("Palmitoyl-[d(γGlu)][AEEA][AEEA]GNH[Trp(7-Me)]AV[Aib][3Pal]L[Nle][Sar]-NH2 (SMILES CCCCCCCCCCCCCCCC(=O)N[C@H](CCC(=O)NCCOCCOCC(=O)NCCOCCOCC(=O)NCC(=O)N[C@@H](CC(N)=O)C(=O)N[C@@H](Cc1c[nH]cn1)C(=O)N[C@@H](Cc1c[nH]c2c(C)cccc12)C(=O)N[C@@H](C)C(=O)N[C@H](C(=O)NC(C)(C)C(=O)N[C@@H](Cc1cccnc1)C(=O)N[C@@H](CC(C)C)C(=O)N[C@@H](CCCC)C(=O)N(C)CC(N)=O)C(C)C)C(=O)O) [Peptide 23]")
1090
>>> test_value("{C20 diacid}-[γGlu][AEEA][AEEA]GNH[Trp(7-F)]AV[dA]HL[Nle][Sar]-NH2 (SMILES CCCC[C@H](NC(=O)[C@H](CC(C)C)NC(=O)[C@H](Cc1c[nH]cn1)NC(=O)[C@@H](C)NC(=O)[C@@H](NC(=O)[C@H](C)NC(=O)[C@H](Cc1c[nH]c2c(F)cccc12)NC(=O)[C@H](Cc1c[nH]cn1)NC(=O)[C@H](CC(N)=O)NC(=O)CNC(=O)COCCOCCNC(=O)COCCOCCNC(=O)CC[C@H](NC(=O)CCCCCCCCCCCCCCCCCCC(=O)O)C(=O)O)C(C)C)C(=O)N(C)CC(N)=O) [Peptide 138]")
81.8

binder {C18 diacid}-[d(γGlu)][AEEA][AEEA]GNHWAV[dA]HL[Nle][Aib]-NH2 (SMILES CCCC[C@H](NC(=O)[C@H](CC(C)C)NC(=O)[C@H](Cc1c[nH]cn1)NC(=O)[C@@H](C)NC(=O)[C@@H](NC(=O)[C@H](C)NC(=O)[C@H](Cc1c[nH]c2ccccc12)NC(=O)[C@H](Cc1c[nH]cn1)NC(=O)[C@H](CC(N)=O)NC(=O)CNC(=O)COCCOCCNC(=O)COCCOCCNC(=O)CC[C@@H](NC(=O)CCCCCCCCCCCCCCCCC(=O)O)C(=O)O)C(C)C)C(=O)NC(C)(C)C(N)=O) [Peptide 82] , hIP1 GRPR EC50 observed: 1230

binder {C20 diacid}-[γGlu][γGlu][AEEA][AEEA]RGRH[Trp(7-Me)]AV[βAla]HL[Nle]-NH2 (SMILES CCCC[C@H](NC(=O)[C@H](CC(C)C)NC(=O)[C@H](Cc1c[nH]cn1)NC(=O)CCNC(=O)[C@@H](NC(=O)[C@H](C)NC(=O)[C@H](Cc1c[nH]c2c(C)cccc12)NC(=O)[C@H](Cc1c[nH]cn1)NC(=O)[C@H](CCCNC(=N)N)NC(=O)CNC(=O)[C@H](CCCNC(=N)N)NC(=O)COCCOCCNC(=O)COCCOCCNC(=O)CC[C@H](NC(=O)CC[C@H](NC(=O)CCCCCCCCCCCCCCCCCCC(=O)O)C(=O)O)C(=O)O)C(C)C)C(N)=O) [Peptide 254] , hIP1 GRPR EC50 observed: 3.7

From: patent US20260176319A1
